Data credit: paper PMC9021956

- study.system: HLA-A2402 (Homo sapiens, UniProt P04439, D101N/D140Y/D185E/E176V/E190D/F33S/G103R/G107R/I119L/I121M/I306V/K335N/L105A/L180Q/L300P/N151K/N90K/Q86E/Q94H/R106L/R138H/R89G/T104I/T345S/V100E/W191G/Y123F)
- assay.overview: cell-based
- Format: binding
- measurement.context: HLA-A2402 HMy2.CIR cells; competitor peptide 5μM; 24 hours; flow cytometry
Residues, ends and D or L forms follow the SMILES beside them.
metric.name: inhibition at 5 µM (%)
All answers are understood in %, so give the number only.

molecule | inhibition at 5 µM (%)
CC(C)C[C@H](NC(=O)[C@H](CC(C)C)NC(=O)[C@H](CCC(=O)O)NC(=O)[C@H](C)NC(=O)[C@@H](NC(=O)[C@@H](N)Cc1c[nH]cn1)[C@@H](C)O)C(=O)N[C@@H](C)C(=O)N[C@@H](C)C(=O)N[C@@H](CS)C(=O)N[C@@H](Cc1ccccc1)C(=O)O [Epitope P119] (H-HTAELLAACF-OH; N-terminus and C-terminus assumed) | 3.1

Q. # lookup: inhibition at 5 µM of CC[C@H](C)[C@H](NC(=O)[C@@H](NC(=O)[C@H](CO)NC(=O)[C@H](CC(C)C)NC(=O)[C@H](Cc1c[nH]c2ccccc12)NC(=O)[C@@H](N)C(C)C)C(C)C)C(=O)N[C@@H](Cc1c[nH]c2ccccc12)C(=O)N[C@@H](CCSC)C(=O)N[C@@H](CCSC)C(=O)N[C@@H](Cc1c[nH]c2ccccc12)C(=O)O [Epitope P51] (H-VWLSVIWMMW-OH; N-terminus and C-terminus assumed)
A. 40

###

- study.system: HLA-A1102 (Homo sapiens, UniProt P04439, A114D/D185E/E176A/E43K/F33Y/L180Q/S129P/T187R)
- assay.overview: Peptide competitive binding assay, transfected HMy2.CIR cells, reference ATFQFK(FITC)VER
- measurement.context: read-out: Affinity
pIC50: −log10 of the molar value. Residues, ends and D or L forms follow the SMILES beside them.
metric.name: pIC50

Q. # lookup: pIC50 of CC(C)C[C@H](NC(=O)[C@H](Cc1ccccc1)NC(=O)[C@H](Cc1ccccc1)NC(=O)CNC(=O)[C@H](C)NC(=O)[C@@H](N)CCC(N)=O)C(=O)N[C@@H](CC(C)C)C(=O)N[C@H](C(=O)N[C@@H](CCCNC(=N)N)C(=O)O)[C@@H](C)O [Epitope P41] (H-QAGFFLLTR-OH; N-terminus and C-terminus assumed)
A. < 4.82

###

- study.system: HLA-A0206 (Homo sapiens, UniProt P04439, D140Y/D185E/D98H/E176V/E277Q/F33Y/G131W/G231S/I119V/I121R/I166T/I218V/L300P/L318F/N151K/N90K/P208A/P217A/Q86G/Q94H/R138H/R169H/T345S)
- assay.overview: cell-based
Residues, ends and D or L forms follow the SMILES beside them.
Listed here are compounds together with their documented IC50.

Worked examples follow.
compound | IC50
CC(C)C[C@H](NC(=O)[C@H](Cc1ccccc1)NC(=O)[C@H](C)NC(=O)[C@H](CCCCN)NC(=O)[C@H](Cc1ccc(O)cc1)NC(=O)[C@@H](NC(=O)[C@@H]1CCCN1)[C@@H](C)O)C(=O)N[C@@H](CS)C(=O)N[C@@H](CCCCN)C(=O)O [Epitope P16] (H-PTYKAFLCK-OH; N-terminus and C-terminus assumed) | > 15 µM
CC(C)C[C@H](NC(=O)[C@H](CC(=O)O)NC(=O)[C@@H](NC(=O)[C@@H](NC(=O)[C@@H](N)CO)[C@@H](C)O)[C@@H](C)O)C(=O)N[C@@H](CCC(=O)O)C(=O)N[C@@H](C)C(=O)N[C@@H](Cc1ccc(O)cc1)C(=O)N[C@@H](Cc1ccccc1)C(=O)N[C@@H](CCCCN)C(=O)O [Epitope P18] | > 15 µM

Now look at this entry.
Q. # lookup: IC50 of CC[C@H](C)[C@H](NC(=O)[C@H](CC(C)C)NC(=O)[C@H](CCCCN)NC(=O)[C@H](C)NC(=O)CNC(=O)[C@H](CO)NC(=O)[C@H](CCCNC(=N)N)NC(=O)[C@H](CO)NC(=O)[C@@H](N)CCCNC(=N)N)C(=O)O [Epitope P89] (H-RSRSGAKLI-OH; N-terminus and C-terminus assumed)
A. > 15 µM
